# assayRemarks: Primary qHTS for delayed death inhibitors of the malarial parasite plastid, 48 hour incubation
# protocolConditions: P. falciparum luciferase growth in erythrocytes; series mostly up to 28.7 µM
# Text: The goal of this screen is to discover new antimalarial compounds that act by inhibiting the development of the apicoplast in the malarial parasite Plasmodium falciparum. […] We have developed a cell-based assay that measures parasite growth based on the expression of an integrated copy of a firefly luciferase reporter. […] Growth inhibition is detected by a decrease in luciferase activity. […]
In all, about 310,000 compounds went through this assay and about 18,000 (5.8%) were called active. Inconclusive results (about 22%) are left out. Calls follow the shape of the dose curve; as a rule, active = well fitted inhibition curve with a large enough effect; inconclusive = small, poorly fitted or top-dose-only effect, or another doubt; inactive = no such curve, though single readings can be large or run the other way. Many of the other results were omitted from the sample, so actives are more common in it than they were.
Parameter call: string, one of Yes for active, No for inactive

[
  {
    "molecule": "CCC(C)(C)NC(=O)CN(C(=O)CCC(=O)Nc1nccs1)c1ccc2c(c1)OCO2",
    "classLabel": "No"
  },
  {
    "molecule": "CCn1c(SCc2ccccc2)nc2c(c1=O)SCC2",
    "classLabel": "No"
  },
  {
    "molecule": "CCOc1ccc(NC(=O)c2cccc3c2C(=O)N(CC2CCCO2)C3)cc1 (centres undefined)",
    "classLabel": "No"
  },
  {
    "molecule": "CCOc1ccc2[nH]c(=O)c(CN(CCCO)C(C)=O)cc2c1",
    "classLabel": "No"
  },
  {
    "molecule": "COc1cccc(CSc2nc3nc(C)cc(C)n3n2)c1",
    "classLabel": "No"
  },
  {
    "molecule": "COCCCn1c(SCc2cccc(OC)c2)nc2cc(OC)c(OC)cc2c1=N",
    "classLabel": "Yes"
  },
  {
    "molecule": "COc1cccc(CNC(=O)CCC2CCCN(C(=O)c3cc(C)[nH]n3)C2)c1 (centres undefined)",
    "classLabel": "No"
  },
  {
    "molecule": "Cc1cc(=O)oc2c1ccc1ccccc12",
    "classLabel": "No"
  },
  {
    "molecule": "O=Cc1cn(-c2ccccc2)nc1-c1ccccn1",
    "classLabel": "No"
  },
  {
    "molecule": "O=C1CN(C(=O)c2cc(F)cc(F)c2)c2ccccc2N1",
    "classLabel": "No"
  }
]

Now take the following molecule into account.
In: Returns: the outcome recorded for Cc1[nH]c2c(C(=O)N3CCCC(CCC(=O)NCc4ccccc4F)C3)cccc2c1C (centres undefined) in this assay.
Out: Yes

###

# assayRemarks: Primary qHTS for delayed death inhibitors of the malarial parasite plastid, 48 hour incubation
# protocolConditions: P. falciparum luciferase growth in erythrocytes; series mostly up to 28.7 µM
The campaign covered roughly 310,000 compounds. About 18,000 (5.8%) were called active. Another 22% or so got no clear call; they are omitted. The call rests on the fitted dose curve; in most records, active means well fitted inhibition curve with a large enough effect; inconclusive means small, poorly fitted or top-dose-only effect, or another doubt; inactive means no such curve, though single readings can be large or run the other way. This is one part of a sample in which actives are shown more often than they occur.
The categories you may choose from are TRUE = active, FALSE = inactive

Solved cases (3 shown):
[
  {
    "compound": "O=S(=O)(c1cccc(-c2nnc3n2CCCCC3)c1)N1CCOCC1",
    "classLabel": "FALSE"
  },
  {
    "compound": "COc1ccc(C(=O)CCC(=O)Nc2cccnc2)c(OC)c1",
    "classLabel": "FALSE"
  },
  {
    "compound": "CSc1ncccc1C(=O)Nc1ccc(C)cn1",
    "classLabel": "FALSE"
  }
]

Alright, here's another compound for you.
In: Could you check what this test reported for `Cc1c(CN2CCC(CO)(CCOc3ccccc3)CC2)[nH]c2ccc(Cl)cc12` ?
Out: TRUE

###

# assayRemarks: Primary qHTS for delayed death inhibitors of the malarial parasite plastid, 48 hour incubation; also: potency is read from the fitted curve at half-maximal effect
# protocolConditions: P. falciparum luciferase growth in erythrocytes; series mostly up to 28.7 µM
In all, about 310,000 compounds went through this assay and about 18,000 (5.8%) were called active. Another 22% or so got no clear call; they are omitted. This excerpt belongs to a sample that is enriched for actives.
attributeMeasured: Potency

Sample records with Potency:
[
  {
    "compound": "Cc1ccc(-c2noc(-c3ccccc3C(=O)NCC3CCCO3)n2)cc1 (stereo unspecified)",
    "Potency": "inactive"
  },
  {
    "compound": "CCCSc1nc2c(c(=O)[nH]c(=O)n2C)n1CCc1ccccc1",
    "Potency": "inactive"
  },
  {
    "compound": "COc1ccc(CCNC(=O)CSc2nnc(-c3cccc(F)c3)o2)cc1OC",
    "Potency": "inactive"
  },
  {
    "compound": "Cc1cccn2c(=O)c3cc(C(=O)NCC4CCCO4)c(=N)n(Cc4ccc(F)cc4)c3nc12 (stereo unspecified)",
    "Potency": "9.28 µM (active)"
  },
  {
    "compound": "CCCCn1c(N)c(N(CCOC)C(=O)c2sc3ccccc3c2Cl)c(=O)[nH]c1=O",
    "Potency": "inactive"
  }
]

// next item, Potency requested
Consider `COc1ccc(CSc2nnnn2-c2ccc(C(=O)O)cc2)cc1` . Its measured Potency is inactive

###

# assayRemarks: Primary qHTS for delayed death inhibitors of the malarial parasite plastid, 48 hour incubation
# protocolConditions: P. falciparum luciferase growth in erythrocytes; series mostly up to 28.7 µM
The campaign covered roughly 310,000 compounds. About 18,000 (5.8%) were called active. About 22% were inconclusive and are not listed. Calls follow the shape of the dose curve; as a rule, active = well fitted inhibition curve with a large enough effect; inconclusive = small, poorly fitted or top-dose-only effect, or another doubt; inactive = no such curve, though single readings can be large or run the other way. The sample holds actives, similar compounds and a random draw of the others, so the mix is not that of the screen.
Lab note: assign the record to one of active, inactive

Field: example entries. Status: answers known.
[
  {
    "molecule": "O=C1c2ccccc2NC(c2ccc(-c3cccc(Cl)c3)o2)N1O (centres undefined)",
    "classLabel": "inactive"
  },
  {
    "molecule": "O=C1NC(c2cccc(Cl)c2)Nc2ccccc21 (centres undefined)",
    "classLabel": "inactive"
  },
  {
    "molecule": "CCOc1ccc(CN(C)C(=O)c2ccc(=O)[nH]c2)cc1",
    "classLabel": "inactive"
  }
]

In: Hi, sorry to bother you, what did the test record for `COc1ccc(-c2ccc3nnc(SCC(=O)Nc4ccc(NC(C)=O)cc4)n3n2)cc1` ?
Out: inactive

In: Could you kindly confirm the outcome this assay logged for `Cc1ccc(CSc2nsc(C)c2C#N)cc1` ?
Out: inactive

In: What did the test return for `O=C(NCCc1ccc(Cl)cc1Cl)c1cc([N+](=O)[O-])c[nH]c1=O` ?
Out: inactive

###

# assayRemarks: Primary qHTS for delayed death inhibitors of the malarial parasite plastid, 48 hour incubation
# protocolConditions: P. falciparum luciferase growth in erythrocytes; series mostly up to 28.7 µM
Hit rate of the full screen: of about 310,000 compounds, about 18,000 (5.8%) were called active. Not shown: some 22% with an inconclusive outcome. Calls follow the shape of the dose curve; as a rule, active = well fitted inhibition curve with a large enough effect; inconclusive = small, poorly fitted or top-dose-only effect, or another doubt; inactive = no such curve, though single readings can be large or run the other way. What follows is part of a selection rich in actives, with near analogues and random picks from the rest.
Pick one: 1.0 for active, 0.0 for inactive

Worked examples follow.
[
  {
    "molecule": "CCc1noc(C)c1C(=O)Nc1nc2ccc(OC)cc2s1",
    "classLabel": 0.0
  },
  {
    "molecule": "COCCn1c(SCC(=O)Nc2cc(Cl)ccc2OC)nc2c(c1=O)SC(C)C2 (configuration not stated)",
    "classLabel": 1.0
  },
  {
    "molecule": "NC(=O)c1ccc(Nc2ccc3nonc3c2[N+](=O)[O-])cc1",
    "classLabel": 0.0
  }
]

In: What classification did `O=S(=O)(Nc1cc(S(=O)(=O)N2CCOCC2)ccc1N1CCCC1)c1cccs1` end up with in this test?
Out: 0.0

###

# assayRemarks: Primary qHTS for delayed death inhibitors of the malarial parasite plastid, 48 hour incubation
# protocolConditions: P. falciparum luciferase growth in erythrocytes; series mostly up to 28.7 µM
The whole screen tested about 310,000 compounds, of which about 18,000 (5.8%) were called active. About 22% were inconclusive and are not listed. Calls come from the whole dose curve; as a rule, active = well fitted inhibition curve with a large enough effect; inconclusive = small, poorly fitted or top-dose-only effect, or another doubt; inactive = no such curve, though single readings can be large or run the other way. The sample holds actives, similar compounds and a random draw of the others, so the mix is not that of the screen.
Allowed answers: T (active), F (inactive)

Past entries and their recorded results:
[
  {
    "compound": "CN(C(=O)COC(=O)CNC(=O)C12CC3CC(CC(C3)C1)C2)c1ccccc1",
    "classLabel": "F"
  },
  {
    "compound": "COc1ccccc1S(=O)(=O)c1c(C)cc(C)[nH]c1=O",
    "classLabel": "F"
  },
  {
    "compound": "Nc1cccc(-c2cc(-c3ccccc3)nc(-c3cccc(N)c3)n2)c1",
    "classLabel": "T"
  },
  {
    "compound": "Cc1cc(=O)cc(C)n1-c1ccc(Cl)c(Cl)c1",
    "classLabel": "F"
  },
  {
    "compound": "O=C(CN1C(=O)NC2(CCCCC2)C1=O)NCCc1c[nH]c2ccccc12",
    "classLabel": "F"
  },
  {
    "compound": "COc1ccc(CNC(=O)C(=O)N2CCC3(CC2)OCCN3S(=O)(=O)c2ccc(C)cc2)cc1",
    "classLabel": "F"
  }
]

In: Give the logged outcome of this assay for the following compound: COc1ccc(C2=NS(=O)(=O)N(C)C(C(=O)NC(C)c3ccccc3)=C2)cc1 (stereo not given)
Out: F

In: Tell me the recorded outcome of this test for `O=C(Cn1nnc(-c2ccc3c(c2)OCO3)n1)NCc1ccco1` .
Out: F

In: For `O=C(Nc1ccccn1)C1CCN(S(=O)(=O)c2ccc3c(c2)OCCO3)CC1` , which call appears in the assay record?
Out: F

In: Name the outcome recorded for O=C(NCc1ccccc1)C(c1ccccc1)N(C(=O)c1csnn1)c1ccc(F)cc1 (stereo not given) in the assay.
Out: F
